These entries and their values trace back to the supplement of paper PMC9694430.

Parameter thermal shift delta Tm: see the listing below.
Test system: LOC_OS02G08530-cb003
procedure_summary: thermal shift delta Tm vs DMSO control; higher = stronger stabilization (binding);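 further: purified Escherichia coli-expressed rice kinase domain construct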
measurement_context: 12.5 µM; protein concentration 2 µM
Note: unit °C is implicit; provide only the numeric part.

Known results for molecules:
Look up thermal shift delta Tm for this molecule: CNC(=O)c1ccc(C)c(-n2c(C)cc(OCc3ccc(F)cc3F)c(Br)c2=O)c1
0.96

Consider the molecule shown here: CC(C)NC(=O)C1CCC(n2c(NC(=O)c3ccc(F)cc3)nc3ccc(CN4CCC(C(C)(C)O)CC4)cc32)CC1 (centres undefined) What is its recorded thermal shift delta Tm?
5.19

Requested read-out: thermal shift delta Tm. Entry: C[C@@H]1COCCN1c1cc(C2([S@](C)(=N)=O)CC2)nc(-c2cc[nH]c3nccc2-3)n1
0.49

Continuing:
What measured thermal shift delta Tm goes with O=C(Nc1cc(C(F)(F)F)cc(C(F)(F)F)c1)c1cc(Cl)ccc1O ?
1.42

###

System: LOC_OS04G35114-cb001
procedure_summary: thermal shift delta Tm vs DMSO control; higher = stronger stabilization (binding)
measurement_context: 12.5 µM; protein concentration 2 µM
reported_endpoint: thermal shift delta Tm

# input compound: Fc1ccc2[nH]ccc2c1-c1nc(N2CCOCC2)c2sc(CN3CCN(CC4CC4)CC3)cc2n1 ; wanted: its thermal shift delta Tm
0.63 °C

GET /values?readout=thermal shift delta Tm&item= Cn1cnc2c(F)c(Nc3ccc(Br)cc3Cl)c(C(=O)NOCCO)cc21 [Selumetinib (AZD6244)]
0.24 °C

Any idea what its thermal shift delta Tm is? The compound is CC(C)n1nc(-c2cc3cc(O)ccc3[nH]2)c2c(N)ncnc21 [Torkinib (PP242)]
5.09 °C

Please report the recorded thermal shift delta Tm for C[C@@H](Oc1cc(-n2cnc3ccc(CN4CCN(C)CC4)cc32)sc1C(N)=O)c1ccccc1C(F)(F)F .
2.11 °C

###

Test system: LOC_OS02G17970-cb001
procedure_summary: thermal shift delta Tm vs DMSO control; higher = stronger stabilization (binding)
measurement_context: 12.5 µM; protein concentration 2 µM
Listed here are compounds together with their documented thermal shift delta Tm.
Respond numerically; units are °C and should not be typed.

Sample answers from the record:
Recorded thermal shift delta Tm of CCc1cc(Nc2nccc(-c3c(-c4ccc(OC)c(C(=O)Nc5c(F)cccc5F)c4)nc4ccccn34)n2)c(OC)cc1N1CCC(N2CCN(S(C)(=O)=O)CC2)CC1 , please.
0.47

Entry COCCOc1ccc2c(c1)ncn2-c1ccc2cccc(N3CCC(N)CC3)c2n1 : reported thermal shift delta Tm = ?
0.26

Entry under review: COc1cc2nccc(Oc3ccc(NC(=O)NC4CC4)c(Cl)c3)c2cc1C(N)=O [Lenvatinib (E7080)] . Reported thermal shift delta Tm?
0.27

Value lookup for thermal shift delta Tm; key = N#C/C(=C\c1ccc(O)c(O)c1)C(=O)NCc1ccccc1 [AG-490 (Tyrphostin B42)]
1.7

Request the reported thermal shift delta Tm associated with O=c1cc(N2CCOCC2)oc2c(-c3ccc4c(c3)OCCO4)csc12
-0.32

# lookup: thermal shift delta Tm of CC#CC(=O)Nc1ccc2ncnc(Nc3cccc(Br)c3)c2c1
1.1

Using the record for Nc1nc(N)c(N=O)c(OCC2CCCCC2)n1 , report its thermal shift delta Tm.
0.61

Continuing:
What measured thermal shift delta Tm goes with CC1(C)OC(=O)C=C[C@]2(C)[C@H]3CC[C@@]4(C)[C@H](c5ccoc5)OC(=O)[C@H]5O[C@]54[C@]3(C)C(=O)C[C@@H]12 [Obacunone] ?
0.03
